# System: CCRIS mutagenicity, Ames/micronucleus/aberration tests
# assayProtocol: CCRIS mutagenicity studies
# conditionDescription: Test System: AMES SALMONELLA TYPHIMURIUM; Strain/Indicator: TA1535; Metabolic Activation: NONE; Method: STANDARD PLATE
# Excerpt: The CCRIS database contains chemical records with carcinogenicity, mutagenicity, tumor promotion, and tumor inhibition test results. It was developed by the National Cancer Institute (NCI). Data are derived from studies cited in primary journals, current awareness tools, NCI reports, and other sources. Test results have been reviewed by experts in carcinogenesis and mutagenesis. CCRIS provides historical information from the years 1985 - 2011. It is no longer updated. […]
Activity calls are given as the source filed them. The rule behind the calls is not given here.
Thanks in advance; please answer with one of these: active, inactive

These solved cases illustrate the format of a correct answer.
O=C(Cl)OCc1ccccc1
inactive
C(CCC1CO1)CC1CO1 (configuration not stated)
active

# fetch the recorded call for CC(C)Oc1ccc2c(=O)c(-c3ccccc3)coc2c1 here
inactive

State the result this test recorded for O=[N+]([O-])c1ccc(OC2CO2)cc1 (configuration not stated) .
active

So what was the verdict on CC(C)CN(N=O)/C(N)=N/[N+](=O)[O-] in this test?
active

In this assay, the call recorded for Nc1ccc(-c2ccccc2)cc1 was what?
inactive

How did this test come out for Cc1ccc(NS(=O)(=O)c2cccc3cccnc23)cc1 ?
inactive

What did the test return for CC(C)n1c(/C=C/[C@H](O)C[C@H](O)CC(=O)O)c(-c2ccc(F)cc2)c2ccccc21 ?
inactive

Could you kindly confirm the outcome this assay logged for COC(=O)c1ccc(CN(C)N=O)cc1 ?
inactive

Give the logged outcome of this assay for the following compound: Cc1cc(N)c([N+](=O)[O-])cc1N
inactive

Kindly provide the recorded test outcome for the following compound: O=[N+]([O-])c1cccc(NS(=O)(=O)c2cccc3cccnc23)c1
inactive

Query: recorded result category for [Cl][Cd][Cl] in this test
inactive

Dear all, I need the recorded test outcome for Nc1ccc2c(c1)C(=O)c1ccc(N)cc1C2=O , thank you.
inactive

Query: recorded result category for CC1=CC(=O)C=C2CC[C@@H]3[C@H](CC[C@]4(C)C(=O)CC[C@@H]34)[C@@]12C in this test
inactive

Can you look up the reported call for C[C@@H]1CC[C@@]2(OC1)O[C@H]1C[C@H]3[C@@H]4CC=C5C[C@@H](O)CC[C@]5(C)[C@H]4CC[C@]3(C)[C@H]1[C@@H]2C for me?
inactive

// param item: CN(C)N=Nc1ccc([N+](=O)[O-])cc1 ; yields the recorded call
active

Tell me the recorded outcome of this test for O=c1oc2cc([N+](=O)[O-])ccc2c2ccccc12 .
active

# fetch the recorded call for Cl here
inactive

What did the test return for CC(=O)Nc1ccc(O)cc1 ?
inactive

Which result was noted for this compound in the test: O=C(Nc1cc(Cl)cc(Cl)c1O)c1c(O)c(Cl)cc(Cl)c1Cl
inactive

Please indicate how the test categorized O=C1CCC(=O)N1O .
inactive

Would you mind telling me which call this test gave CN1CCN=C(c2ccccc2)c2cc(Cl)ccc21 ?
inactive

Fill in: this test's call for CN(C)C(=S)SSC(=S)N(C)C is ___
active

Please indicate how the test categorized NCCCC[C@H](N[C@@H](CCc1ccccc1)C(=O)O)C(=O)N1CCC[C@H]1C(=O)O .
inactive

Could you check what this test reported for Nc1ccc(S(=O)(=O)Nc2cnc3c(Cl)cccc3n2)cc1 ?
inactive

====

# System: CCRIS mutagenicity, Ames/micronucleus/aberration tests
# assayProtocol: CCRIS mutagenicity studies
# conditionDescription: Test System: AMES SALMONELLA TYPHIMURIUM; Strain/Indicator: TA100; Metabolic Activation: RAT, LIVER, S-9; Method: STANDARD PLATE
# Excerpt: The CCRIS database contains chemical records with carcinogenicity, mutagenicity, tumor promotion, and tumor inhibition test results. It was developed by the National Cancer Institute (NCI). Data are derived from studies cited in primary journals, current awareness tools, NCI reports, and other sources. Test results have been reviewed by experts in carcinogenesis and mutagenesis. CCRIS provides historical information from the years 1985 - 2011. It is no longer updated. […]
Active and inactive are the calls of the source. How the calls were made is not given here.
Assign a class; possible classes are 1 = active, 0 = inactive

Worked set:
CCOC(=O)CC(SP(=O)(OC)OC)C(=O)OCC (centres undefined)
0
CCCOS(C)(=O)=O
1
CCOCC(O)COc1ccc(NC(=O)CC[S+](C)C)cc1 (centres undefined)
0
CC(=O)NO
0

Tell me the recorded outcome of this test for COS(=O)(=O)c1ccc(C)cc1 .
1

For this compound, state the assay outcome: Cc1cc(C)c(N)c(C)c1N
1

Hi, do you know how CC/C(=C(/CC)c1ccc(O)cc1)c1ccc(O)cc1 came out in this test?
0

Please indicate how the test categorized CC(C)OS(C)(=O)=O .
1

Hi, sorry to bother you, what did the test record for C[n+]1ccn(CCS(C)(=O)=O)c1/C=N/O ?
0

What call does the record list for CCC(C)OS(C)(=O)=O (centres undefined) ?
1

What outcome does the record of this test show for O=C1[C@H]2CC=CC[C@H]2C(=O)N1SC(Cl)(Cl)Cl ?
1

What did this assay record as the result for O=[N+]([O-])c1c2c(cc3ccccc13)C=C[C@@H](O)[C@@H]2O ?
0

Please let me know the test result on file for OC[C@@H](O)[C@@H](O)CO .
0

Any idea what this test logged for NC(=O)c1cc[n+](COC[n+]2ccccc2/C=N/O)cc1 ?
0

====

# System: CCRIS mutagenicity, Ames/micronucleus/aberration tests
# assayProtocol: CCRIS mutagenicity studies
# conditionDescription: Test System: AMES SALMONELLA TYPHIMURIUM; Strain/Indicator: TA100(NR); Metabolic Activation: NONE; Method: PREINCUBATION
The source made the active and inactive calls. The rule behind the calls is not given here.
Lab note: assign the record to one of active, inactive

Some solved entries appear below for comparison.
CSc1ccc([N+](=O)[O-])cc1[N+](=O)[O-]
active
O=C/C=C/c1ccc([N+](=O)[O-])o1
active

# fetch the recorded call for Nc1ncnc2c1ncn2-c1cccc([N+](=O)[O-])c1 here
inactive

Just curious, what result did N[C@@H](CCC(=O)N[C@@H](CSc1ccc([N+](=O)[O-])cc1[N+](=O)[O-])C(=O)NCC(=O)O)C(=O)O get here?
inactive

====

# System: CCRIS mutagenicity, Ames/micronucleus/aberration tests
# assayProtocol: CCRIS mutagenicity studies
# conditionDescription: Test System: AMES SALMONELLA TYPHIMURIUM; Strain/Indicator: TA1537; Metabolic Activation: RAT, LIVER, S-9, AROCLOR 1254; Method: STANDARD PLATE
Calls of active or inactive are those of the source. How the calls were made is not given here.
Log the outcome using a class from active, inactive

These solved cases illustrate the format of a correct answer.
O=c1c(Cl)c(Cl)cnn1S(=O)(=O)c1ccc(Cl)cc1Cl
inactive
CC(=O)CC(=O)CCC(=O)O
inactive
Cc1cc(N)c([N+](=O)[O-])cc1N
active
O=c1c(O)c(O)c1=O
inactive
C/C=C/c1cc(OC)c(OC)cc1OC
inactive

Call for entry Nc1c(O)cccc1[N+](=O)[O-] :
inactive

====

# System: CCRIS mutagenicity, Ames/micronucleus/aberration tests
# assayProtocol: CCRIS mutagenicity studies
# conditionDescription: Test System: AMES SALMONELLA TYPHIMURIUM; Strain/Indicator: TA2638; Metabolic Activation: NONE; Method: STANDARD PLATE
Calls of active or inactive are those of the source. How the calls were made is not given here.
Parameter call: string, one of 1.0 for active, 0.0 for inactive

COC(=O)CCl
0.0
COc1cccc(N)c1
0.0
CNCCCC(=O)O
0.0
CC(=O)CC(=O)Nc1ccccc1C
0.0
CC1COc2c(N3CCN(C)CC3)c(F)cc3c(=O)c(C(=O)O)cn1c23 (stereo unspecified)
1.0

Please turn your attention to the following entry.
Test call for this compound, please: Nc1ncn([C@@H]2O[C@H](CO)[C@@H](O)[C@H]2O)c(=O)n1
1.0

====

# Test system: CCRIS mutagenicity, Ames/micronucleus/aberration tests
# assayProtocol: CCRIS mutagenicity studies
# conditionDescription: Test System: E.COLI; Strain/Indicator: WP2UVRA; Metabolic Activation: NONE; Method: PREINCUBATION
Calls of active or inactive are those of the source. How the calls were made is not given here.
readoutType: mutagenic call

Example entries begin here.
OCCO
inactive; negative
Nc1ccc(C=O)cc1
inactive; negative
c1ccc(C2CO2)cc1 (centres undefined)
active; positive
CC=O
inactive; negative
O.O.O.O.O.O.[Cl-].[Cl-].[Ni+2]
inactive; negative
NCCO
active; positive

Endpoint output: mutagenic call of Nc1ccc(Oc2ccc(N)cc2)cc1 . Value?
inactive; negative

====

# Tested on: CCRIS mutagenicity, Ames/micronucleus/aberration tests
# assayProtocol: CCRIS mutagenicity studies
# conditionDescription: Test System: AMES SALMONELLA TYPHIMURIUM; Strain/Indicator: TA98; Metabolic Activation: RAT, LIVER, S-9, KANECHLOR 500; Method: PREINCUBATION
# Text: The CCRIS database contains chemical records with carcinogenicity, mutagenicity, tumor promotion, and tumor inhibition test results. It was developed by the National Cancer Institute (NCI). Data are derived from studies cited in primary journals, current awareness tools, NCI reports, and other sources. Test results have been reviewed by experts in carcinogenesis and mutagenesis. CCRIS provides historical information from the years 1985 - 2011. It is no longer updated. […]
Activity calls are given as the source filed them. No rule for the calls is given here.
readoutType: mutagenic call

Answered examples (8):
NNc1ccccc1[N+](=O)[O-]
active; positive
Nc1cc(N)c(-c2ccccc2)c([N+](=O)[O-])c1
active; positive
Cc1ccc([N+](=O)[O-])cc1C
inactive; negative
CCc1ccc([N+](=O)[O-])cc1
inactive; negative
Nc1cc([N+](=O)[O-])c(-c2ccccc2)c([N+](=O)[O-])c1
active; positive
O=[N+]([O-])c1ccc(O)c([N+](=O)[O-])c1
inactive; negative
CC(=O)Nc1ccc2cccnc2c1
active; positive
O=C(O)c1ccccc1[N+](=O)[O-]
active; positive

Please report the recorded mutagenic call for NNc1ccc([N+](=O)[O-])cc1 .
active; positive
